Target: human GPR84 receptor (Homo sapiens, UniProt Q9NQS5)
Construct: frozen aliquots prepared by acCELLerate
Sequence (Q9NQS5 whole entry): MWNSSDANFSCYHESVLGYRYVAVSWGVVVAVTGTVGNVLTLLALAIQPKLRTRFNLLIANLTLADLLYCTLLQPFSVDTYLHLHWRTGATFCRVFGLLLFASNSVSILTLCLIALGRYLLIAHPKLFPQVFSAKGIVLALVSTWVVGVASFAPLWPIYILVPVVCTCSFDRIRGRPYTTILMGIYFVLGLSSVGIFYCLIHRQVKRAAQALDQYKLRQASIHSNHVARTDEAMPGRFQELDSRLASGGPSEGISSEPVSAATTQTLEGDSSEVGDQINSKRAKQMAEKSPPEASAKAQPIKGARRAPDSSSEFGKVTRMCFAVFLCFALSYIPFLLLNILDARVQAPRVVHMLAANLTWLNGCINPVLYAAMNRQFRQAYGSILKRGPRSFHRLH
Experiment: cAMP HTRF assay for identification of cellular GPR84 antagonists
Settings: CHO-K1 cells stably expressing human GPR84; Forskolin plus agonist 6-OAU; cAMP HTRF readout; average or median values
Outcome Measure: pIC50
// pIC50 here means minus log10 of the molar concentration (mol/L)

The compound Cc1ccccc1Cn1cc2c(n1)-c1c(oc(C(=O)NCC3CCCN3C(=O)OC(C)(C)C)c1C)CC2 (racemic) [Example 6] on human GPR84 receptor (Homo sapiens, UniProt Q9NQS5): pIC50 was 5.65

Given the compound Cc1c(C(=O)NCCN2CCC2)oc2c1-c1nn(Cc3ccc(Cl)cc3)cc1CC2 [Example 26] and test system human GPR84 receptor (Homo sapiens, UniProt Q9NQS5), the measured pIC50 is 5.79

pIC50 on human GPR84 receptor (Homo sapiens, UniProt Q9NQS5) for Cc1c(C(=O)NCC(N)=O)oc2c1-c1nn(Cc3ccc(Cl)cc3)cc1CC2 [Example 48] is 5.67

Entry Cc1ccccc1Cn1cc2c(n1)-c1c(oc(C(=O)NCC3CCCN3)c1C)CC2 (racemic) [Example 7] , human GPR84 receptor (Homo sapiens, UniProt Q9NQS5) data, pIC50 value: 6.17

# value of pIC50, human GPR84 receptor (Homo sapiens, UniProt Q9NQS5), item Cc1c(C(=O)N2CCCCC2)oc2c1-c1nn(Cc3ccc(Cl)cc3)cc1CC2 [Example 87] = 4.77

Observed pIC50 on human GPR84 receptor (Homo sapiens, UniProt Q9NQS5), entry Cc1c(C(=O)NCc2ccc(C(N)=O)cc2)oc2c1-c1nn(Cc3ccc(Cl)cc3)cc1CC2 [Example 42] , equals 6.14

Bench note, human GPR84 receptor (Homo sapiens, UniProt Q9NQS5): Cc1c(C(=O)NCC2CCCO2)oc2c1-c1nn(Cc3cccc(Cl)c3)cc1CC2 (single isomer, unassigned) [Example 15-1] , pIC50 reads 7.06

Record Cc1c(C(=O)NCc2cccn2C)oc2c1-c1nn(Cc3ccc(Cl)cc3)cc1CC2 [Example 44] has human GPR84 receptor (Homo sapiens, UniProt Q9NQS5) pIC50 equal to 6.05

Case Cc1c(C(=O)N2CCCC(C(N)=O)C2)oc2c1-c1nn(Cc3ccc(Cl)cc3)cc1CC2 (centres unmarked) [Example 88] , human GPR84 receptor (Homo sapiens, UniProt Q9NQS5), pIC50 recorded as 4.76

Short answer on human GPR84 receptor (Homo sapiens, UniProt Q9NQS5) for Cc1c(C(=O)N(C)Cc2ccccn2)oc2c1-c1nn(Cc3ccc(Cl)cc3)cc1CC2 [Example 89] , pIC50: 4.76

Value (pIC50, human GPR84 receptor (Homo sapiens, UniProt Q9NQS5)) for record Cc1c(C(=O)NCc2ccccn2)oc2c1-c1nn(Cc3ccc(Cl)cc3)cc1CC2 [Example 39] = 6.55

Lab note: compound Cc1c(C(=O)NCC2CCCO2)oc2c1-c1nn(Cc3cccc(Cl)c3)cc1CC2 (racemic) [Example 15] tested on human GPR84 receptor (Homo sapiens, UniProt Q9NQS5); recorded pIC50 was 7.13

The reported human GPR84 receptor (Homo sapiens, UniProt Q9NQS5) pIC50 of Cc1ccc(CNC(=O)c2oc3c(c2C)-c2nn(Cc4ccccc4Cl)cc2CC3)cc1 [Example 10] is 7.38

Entry Cc1c(C(=O)NCCN2CCN(C)CC2)oc2c1-c1nn(Cc3ccccc3Cl)cc1CC2 [Example 11] , human GPR84 receptor (Homo sapiens, UniProt Q9NQS5) data, pIC50 value: 6.64

// pIC50 (human GPR84 receptor (Homo sapiens, UniProt Q9NQS5)) for Cc1c(C(=O)N2CCc3ccccc3C2)oc2c1-c1nn(Cc3ccc(Cl)cc3)cc1CC2 [Example 61] = 5.22

Summary: Cc1c(C(=O)N2CC(C)OC(C)C2)oc2c1-c1nn(Cc3ccc(Cl)cc3)cc1CC2 (centres unmarked) [Example 75] , human GPR84 receptor (Homo sapiens, UniProt Q9NQS5), pIC50 = 4.91

# pIC50 measured on human GPR84 receptor (Homo sapiens, UniProt Q9NQS5) for item CC(=O)Nc1ccc(CNC(=O)c2oc3c(c2C)-c2nn(Cc4ccc(Cl)cc4)cc2CC3)cc1 [Example 43] = 6.10

Known value: human GPR84 receptor (Homo sapiens, UniProt Q9NQS5) pIC50 of the compound Cc1c(C(=O)NCCc2ccccc2)oc2c1-c1nn(Cc3ccc(Cl)cc3)cc1CC2 [Example 57] equals 5.30

# lookup: Cc1c(C(=O)NC2CCOCC2)oc2c1-c1nn(Cc3ccc(Cl)cc3)cc1CC2 [Example 77] on human GPR84 receptor (Homo sapiens, UniProt Q9NQS5), pIC50 = 4.86

The compound Cc1c(C(=O)NC2CCC(=O)NC2)oc2c1-c1nn(Cc3ccc(Cl)cc3)cc1CC2 (centres unmarked) [Example 81] , when measured on human GPR84 receptor (Homo sapiens, UniProt Q9NQS5), yielded pIC50 of 4.79

Summary: Cc1c(C(=O)NCCN2CCC2)oc2c1-c1nn(Cc3cccc(Cl)c3)cc1CC2 [Example 20] , human GPR84 receptor (Homo sapiens, UniProt Q9NQS5), pIC50 = 5.81

Form field, pIC50 with human GPR84 receptor (Homo sapiens, UniProt Q9NQS5), item Cc1c(C(=O)N2CC3CC3C2)oc2c1-c1nn(Cc3ccc(Cl)cc3)cc1CC2 (centres unmarked) [Example 68] : 5.10

Readout pIC50 for Cc1c(C(=O)NCC2CCCO2)oc2c1-c1nn(Cc3ccc(Cl)cc3)cc1CC2 (racemic) [Example 21] , test system human GPR84 receptor (Homo sapiens, UniProt Q9NQS5), was 7.24

Let me check: Cc1c(C(=O)NCc2cnn3ccccc23)oc2c1-c1nn(Cc3ccc(Cl)cc3)cc1CC2 [Example 50] , system human GPR84 receptor (Homo sapiens, UniProt Q9NQS5), measured pIC50 is 5.57

# value of pIC50, human GPR84 receptor (Homo sapiens, UniProt Q9NQS5), item Cc1c(C(=O)NCCC(N)=O)oc2c1-c1nn(Cc3ccc(Cl)cc3)cc1CC2 [Example 56] = 5.31

Bench note, human GPR84 receptor (Homo sapiens, UniProt Q9NQS5): entry Cc1ccccc1Cn1cc2c(n1)-c1c(oc(C(=O)NCC3CCCN3)c1C)CC2 (single isomer, unassigned) [Example 7-1] , its pIC50 = 6.14

Record Cc1c(C(=O)NCC(=O)N2CCOCC2)oc2c1-c1nn(Cc3ccc(Cl)cc3)cc1CC2 [Example 35] ; system human GPR84 receptor (Homo sapiens, UniProt Q9NQS5); pIC50 = 5.52

The value of pIC50 recorded for COCCNC(=O)c1oc2c(c1C)-c1nn(Cc3ccc(Cl)cc3)cc1CC2 [Example 40] when tested on human GPR84 receptor (Homo sapiens, UniProt Q9NQS5) reads 6.39

human GPR84 receptor (Homo sapiens, UniProt Q9NQS5) data for Cc1c(C(=O)NCc2ccncc2)oc2c1-c1nn(Cc3ccc(Cl)cc3)cc1CC2 [Example 45] ; its pIC50: 5.84

Entry Cc1c(C(=O)NCC[S+](C)[O-])oc2c1-c1nn(Cc3ccc(Cl)cc3)cc1CC2 (centres unmarked) [Example 63] : pIC50 on human GPR84 receptor (Homo sapiens, UniProt Q9NQS5) = 5.21

human GPR84 receptor (Homo sapiens, UniProt Q9NQS5) pIC50 of Cc1c(C(=O)NCC2CC2)oc2c1-c1nn(Cc3ccc(Cl)cc3)cc1CC2 [Example 51] is 5.57

human GPR84 receptor (Homo sapiens, UniProt Q9NQS5) pIC50 of Cc1c(C(=O)N2CCS(=O)(=O)CC2)oc2c1-c1nn(Cc3ccc(Cl)cc3)cc1CC2 [Example 90] is 4.72

Just for reference, patent US20240239804A1 is where these values come from.
